system: NCI-H520; experiment: relative viability (nuclei count vs DMSO), 5 days (fraction); higher = more cells survive; settings: first compound 0.01 µM

>  <compound>
Cc1cn(-c2cc(NC(=O)c3ccc(C)c(Nc4nccc(-c5cccnc5)n4)c3)cc(C(F)(F)F)c2)cn1 [Nilotinib] + N=C(N)NC(=N)NCCc1ccccc1 [Phenformin] (partner 250 µM)

>  <assayed-system>
NCI-H520

>  <relative viability>
0.655

$$$$
>  <compound>
Cc1cn(-c2cc(NC(=O)c3ccc(C)c(Nc4nccc(-c5cccnc5)n4)c3)cc(C(F)(F)F)c2)cn1 [Nilotinib] + COc1cccc2cc(-c3nc([C@H]4CC[C@H](C(=O)O)CC4)n4ncnc(N)c34)[nH]c12 [OSI-027] (partner 0.5 µM)

>  <assayed-system>
NCI-H520

>  <relative viability>
0.325

$$$$
>  <compound>
Cc1cn(-c2cc(NC(=O)c3ccc(C)c(Nc4nccc(-c5cccnc5)n4)c3)cc(C(F)(F)F)c2)cn1 [Nilotinib] + Cc1nc(NC(=O)N2CCC[C@H]2C(N)=O)sc1-c1ccnc(C(C)(C)C(F)(F)F)c1 [Alpelisib] (partner 2 µM)

>  <assayed-system>
NCI-H520

>  <relative viability>
0.986

$$$$
>  <compound>
Cc1cn(-c2cc(NC(=O)c3ccc(C)c(Nc4nccc(-c5cccnc5)n4)c3)cc(C(F)(F)F)c2)cn1 [Nilotinib] + C[C@@H](Oc1cc(-c2cnn(C3CCNCC3)c2)cnc1N)c1c(Cl)ccc(F)c1Cl [Crizotinib] (partner 1 µM)

>  <assayed-system>
NCI-H520

>  <relative viability>
0.866

$$$$
>  <compound>
Cc1cn(-c2cc(NC(=O)c3ccc(C)c(Nc4nccc(-c5cccnc5)n4)c3)cc(C(F)(F)F)c2)cn1 [Nilotinib] + Cc1nc(Nc2ncc(C(=O)Nc3c(C)cccc3Cl)s2)cc(N2CCN(CCO)CC2)n1 [Dasatinib] (partner 0.075 µM)

>  <assayed-system>
NCI-H520

>  <relative viability>
0.198

$$$$
>  <compound>
Cc1cn(-c2cc(NC(=O)c3ccc(C)c(Nc4nccc(-c5cccnc5)n4)c3)cc(C(F)(F)F)c2)cn1 [Nilotinib] + CC(=O)c1c(C)c2cnc(Nc3ccc(N4CCNCC4)cn3)nc2n(C2CCCC2)c1=O [Palbociclib] (partner 0.5 µM)

>  <assayed-system>
NCI-H520

>  <relative viability>
0.241

$$$$
>  <compound>
Cc1cn(-c2cc(NC(=O)c3ccc(C)c(Nc4nccc(-c5cccnc5)n4)c3)cc(C(F)(F)F)c2)cn1 [Nilotinib] + O=C(c1cc(Cc2n[nH]c(=O)c3ccccc23)ccc1F)N1CCN(C(=O)C2CC2)CC1 [Olaparib] (partner 8 µM)

>  <assayed-system>
NCI-H520

>  <relative viability>
0.305

$$$$

###

system: HCC-366; assay: relative viability (nuclei count vs DMSO), 5 days (fraction); higher = more cells survive; settings: first compound 0.2 µM

>  <compound>
CCNC(=O)c1noc(-c2cc(C(C)C)c(O)cc2O)c1-c1ccc(CN2CCOCC2)cc1 [Luminespib] + CS(=O)(=O)CCNCc1ccc(-c2ccc3ncnc(Nc4ccc(OCc5cccc(F)c5)c(Cl)c4)c3c2)o1 [Lapatinib] (partner 2 µM)

>  <relative viability>
0.0157

$$$$
>  <compound>
Cc1csc(=NC2CCCCC2)n1/N=C/c1ccc(O)c(O)c1O [MIM1] + N=C(N)NC(=N)NCCc1ccccc1 [Phenformin] (partner 250 µM)

>  <relative viability>
0.598

$$$$
>  <compound>
CCNC(=O)c1noc(-c2cc(C(C)C)c(O)cc2O)c1-c1ccc(CN2CCOCC2)cc1 [Luminespib] + Cc1cc(Nc2cc(N3CCN(C)CC3)nc(Sc3ccc(NC(=O)C4CC4)cc3)n2)n[nH]1 [Tozasertib] (partner 0.1 µM)

>  <relative viability>
0.0502

$$$$

###

test system: NCI-H1793; experiment: relative viability (nuclei count vs DMSO), 5 days (fraction); higher = more cells survive; settings: first compound 0.253 µM

>  <molecule>
Nc1cccc2c1CN(C1CCC(=O)NC1=O)C2=O (configuration not stated) [Lenalidomide] + CS(=O)(=O)CCNCc1ccc(-c2ccc3ncnc(Nc4ccc(OCc5cccc(F)c5)c(Cl)c4)c3c2)o1 [Lapatinib] (partner 2 µM)

>  <assayed-system>
NCI-H1793

>  <relative viability>
0.675

$$$$
>  <molecule>
Nc1cccc2c1CN(C1CCC(=O)NC1=O)C2=O (configuration not stated) [Lenalidomide] + CS(=O)(=O)N1CCN(Cc2cc3nc(-c4cccc5[nH]ncc45)nc(N4CCOCC4)c3s2)CC1 [Pictilisib] (partner 1 µM)

>  <assayed-system>
NCI-H1793

>  <relative viability>
0.554

$$$$
>  <molecule>
Nc1cccc2c1CN(C1CCC(=O)NC1=O)C2=O (configuration not stated) [Lenalidomide] + Nc1nc2[nH]cc(CCc3ccc(C(=O)N[C@@H](CCC(=O)O)C(=O)O)cc3)c2c(=O)[nH]1 [Pemetrexed] (partner 0.2 µM)

>  <assayed-system>
NCI-H1793

>  <relative viability>
0.921

$$$$
>  <molecule>
Nc1cccc2c1CN(C1CCC(=O)NC1=O)C2=O (configuration not stated) [Lenalidomide] + C[C@]1(O)C[C@@H](c2nc(-c3ccc4ccc(-c5ccccc5)nc4c3)c3c(N)nccn32)C1 [Linsitinib] (partner 1 µM)

>  <assayed-system>
NCI-H1793

>  <relative viability>
1.02

$$$$
>  <molecule>
Nc1cccc2c1CN(C1CCC(=O)NC1=O)C2=O (configuration not stated) [Lenalidomide] + Nc1ncn([C@H]2C[C@H](O)[C@@H](CO)O2)c(=O)n1 [Decitabine] (partner 2 µM)

>  <assayed-system>
NCI-H1793

>  <relative viability>
0.464

$$$$
>  <molecule>
Nc1cccc2c1CN(C1CCC(=O)NC1=O)C2=O (configuration not stated) [Lenalidomide] + Cc1cc(Nc2cc(N3CCN(C)CC3)nc(Sc3ccc(NC(=O)C4CC4)cc3)n2)n[nH]1 [Tozasertib] (partner 0.1 µM)

>  <assayed-system>
NCI-H1793

>  <relative viability>
0.356

$$$$
>  <molecule>
Nc1cccc2c1CN(C1CCC(=O)NC1=O)C2=O (configuration not stated) [Lenalidomide] + CC(=O)Nc1cccc(-n2c(=O)n(C3CC3)c(=O)c3c(Nc4ccc(I)cc4F)n(C)c(=O)c(C)c32)c1 [Trametinib] (partner 0.02 µM)

>  <assayed-system>
NCI-H1793

>  <relative viability>
0.458

$$$$

###

tested on: EPLC-272H; experiment: relative viability (nuclei count vs DMSO), 5 days (fraction); higher = more cells survive; details: first compound 2 µM
relative viability overview

>  <molecule>
Cc1csc(=NC2CCCCC2)n1/N=C/c1ccc(O)c(O)c1O [MIM1] + Cc1nc(Nc2ncc(C(=O)Nc3c(C)cccc3Cl)s2)cc(N2CCN(CCO)CC2)n1 [Dasatinib] (partner 0.075 µM)

>  <assayed-system>
EPLC-272H

>  <relative viability>
0.328

$$$$
>  <molecule>
Cc1csc(=NC2CCCCC2)n1/N=C/c1ccc(O)c(O)c1O [MIM1] + Cc1nc(NC(=O)N2CCC[C@H]2C(N)=O)sc1-c1ccnc(C(C)(C)C(F)(F)F)c1 [Alpelisib] (partner 2 µM)

>  <assayed-system>
EPLC-272H

>  <relative viability>
0.973

$$$$
>  <molecule>
CN1CCN(CCOc2cc(OC3CCOCC3)c3c(Nc4c(Cl)ccc5c4OCO5)ncnc3c2)CC1 [Saracatinib] + C[C@@H](Oc1cc(-c2cnn(C3CCNCC3)c2)cnc1N)c1c(Cl)ccc(F)c1Cl [Crizotinib] (partner 1 µM)

>  <assayed-system>
EPLC-272H

>  <relative viability>
0.729

$$$$
>  <molecule>
Cc1csc(=NC2CCCCC2)n1/N=C/c1ccc(O)c(O)c1O [MIM1] + CS(=O)(=O)CCNCc1ccc(-c2ccc3ncnc(Nc4ccc(OCc5cccc(F)c5)c(Cl)c4)c3c2)o1 [Lapatinib] (partner 2 µM)

>  <assayed-system>
EPLC-272H

>  <relative viability>
0.722

$$$$
>  <molecule>
CN1CCN(CCOc2cc(OC3CCOCC3)c3c(Nc4c(Cl)ccc5c4OCO5)ncnc3c2)CC1 [Saracatinib] + N=C(N)NC(=N)NCCc1ccccc1 [Phenformin] (partner 250 µM)

>  <assayed-system>
EPLC-272H

>  <relative viability>
0.251

$$$$
>  <molecule>
CN1CCN(CCOc2cc(OC3CCOCC3)c3c(Nc4c(Cl)ccc5c4OCO5)ncnc3c2)CC1 [Saracatinib] + CS(=O)(=O)CCNCc1ccc(-c2ccc3ncnc(Nc4ccc(OCc5cccc(F)c5)c(Cl)c4)c3c2)o1 [Lapatinib] (partner 2 µM)

>  <assayed-system>
EPLC-272H

>  <relative viability>
0.893

$$$$
>  <molecule>
Cc1csc(=NC2CCCCC2)n1/N=C/c1ccc(O)c(O)c1O [MIM1] + O=C(c1cc(Cc2n[nH]c(=O)c3ccccc23)ccc1F)N1CCN(C(=O)C2CC2)CC1 [Olaparib] (partner 8 µM)

>  <assayed-system>
EPLC-272H

>  <relative viability>
0.622

$$$$
>  <molecule>
CN1CCN(CCOc2cc(OC3CCOCC3)c3c(Nc4c(Cl)ccc5c4OCO5)ncnc3c2)CC1 [Saracatinib] + Cc1nc(NC(=O)N2CCC[C@H]2C(N)=O)sc1-c1ccnc(C(C)(C)C(F)(F)F)c1 [Alpelisib] (partner 2 µM)

>  <assayed-system>
EPLC-272H

>  <relative viability>
0.821

$$$$
>  <molecule>
Cc1csc(=NC2CCCCC2)n1/N=C/c1ccc(O)c(O)c1O [MIM1] + NC(=O)Nc1cc(-c2cccc(F)c2)sc1C(=O)N[C@H]1CCCNC1 [AZD7762] (partner 0.2 µM)

>  <assayed-system>
EPLC-272H

>  <relative viability>
0.208

$$$$
>  <molecule>
Cc1csc(=NC2CCCCC2)n1/N=C/c1ccc(O)c(O)c1O [MIM1] + CC(C)C[C@H](NC(=O)[C@H](Cc1ccccc1)NC(=O)c1cnccn1)B(O)O [Bortezomib] (partner 0.002 µM)

>  <assayed-system>
EPLC-272H

>  <relative viability>
0.588

$$$$
>  <molecule>
Cc1csc(=NC2CCCCC2)n1/N=C/c1ccc(O)c(O)c1O [MIM1] + CC(=O)c1c(C)c2cnc(Nc3ccc(N4CCNCC4)cn3)nc2n(C2CCCC2)c1=O [Palbociclib] (partner 0.5 µM)

>  <assayed-system>
EPLC-272H

>  <relative viability>
0.302

$$$$
